half-life at 5 μM: recorded values
measurement.protocol: Stability in mouse plasma (LC-MS/MS)
Assay type: in vitro ADME
condition.notes: mouse, 5 μM, 37° C.
outcome.measure: half-life at 5 μM (h)

[[record]]
compound = "COc1ccccc1/C=N/NC(=O)COc1ccc(Cl)cc1C [Ani9, reference compound]"
reported_value = 0.533

[[record]]
compound = "Cc1cc(Cl)ccc1OCC(=O)N/N=C/c1ccccc1OC(F)(F)F"
reported_value = 1.73


---

measured.on: ANO1 (Homo sapiens (Human), UniProt Q5XXA6)
Sequence (Q5XXA6 whole entry, species assumed): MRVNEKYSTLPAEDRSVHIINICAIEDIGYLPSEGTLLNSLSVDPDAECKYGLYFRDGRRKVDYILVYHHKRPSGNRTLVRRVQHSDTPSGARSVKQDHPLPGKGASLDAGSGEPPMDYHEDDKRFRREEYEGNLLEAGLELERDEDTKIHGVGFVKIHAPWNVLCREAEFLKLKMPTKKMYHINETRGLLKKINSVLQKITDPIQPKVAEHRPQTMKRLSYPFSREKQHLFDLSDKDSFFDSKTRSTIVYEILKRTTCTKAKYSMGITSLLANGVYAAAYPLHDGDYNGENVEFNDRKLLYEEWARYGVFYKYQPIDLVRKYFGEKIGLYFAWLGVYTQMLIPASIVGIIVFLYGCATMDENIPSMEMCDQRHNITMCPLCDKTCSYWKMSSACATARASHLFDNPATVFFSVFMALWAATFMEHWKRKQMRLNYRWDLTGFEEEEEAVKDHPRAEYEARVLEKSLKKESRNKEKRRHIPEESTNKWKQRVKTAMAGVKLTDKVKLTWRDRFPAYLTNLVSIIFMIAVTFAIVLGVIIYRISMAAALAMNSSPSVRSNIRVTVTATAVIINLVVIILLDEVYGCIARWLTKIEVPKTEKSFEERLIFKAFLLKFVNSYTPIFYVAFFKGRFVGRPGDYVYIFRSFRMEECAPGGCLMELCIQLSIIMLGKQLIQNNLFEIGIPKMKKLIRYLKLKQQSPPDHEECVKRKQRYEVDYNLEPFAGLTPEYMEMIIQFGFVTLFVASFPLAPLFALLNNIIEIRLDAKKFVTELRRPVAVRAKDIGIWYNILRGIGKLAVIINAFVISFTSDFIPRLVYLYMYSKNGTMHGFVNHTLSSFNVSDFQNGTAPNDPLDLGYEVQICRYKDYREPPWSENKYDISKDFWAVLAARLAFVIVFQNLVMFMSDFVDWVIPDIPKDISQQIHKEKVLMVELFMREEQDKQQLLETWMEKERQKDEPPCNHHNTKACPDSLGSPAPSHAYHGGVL
measurement.protocol: Selective inhibition of ANO1 over ANO2 (Table 1), ANO1 IC50
Type: cell-based
IC50: recorded values
outcome.measure: IC50 (µM)

[[record]]
compound = "CCOC(=O)C(F)Oc1ccccc1/C=N/NC(=O)COc1ccc(Cl)cc1C (stereo not shown) [Example 7]"
units_label = "µM"
cmp = "="
reported_value = 15.7

[[record]]
compound = "COc1cccc(-c2nnc(COc3ccc(Cl)cc3C)o2)c1 [Comparative Example 4]"
units_label = "µM"
cmp = ">"
reported_value = 100

[[record]]
compound = "COc1cccc(/C=N/NC(=O)COc2ccc(Cl)cc2C)c1 [Comparative Example 3]"
units_label = "µM"
cmp = ">"
reported_value = 100

[[record]]
compound = "Cc1cc(Cl)ccc1OCC(=O)N/N=C/c1ccco1 [Example 8]"
units_label = "µM"
cmp = "="
reported_value = 25.7

